Biological target: NanoLuc VHL fusion protein stably expressed in HEK 293 cells (Homo sapiens, UniProt P40337)
Construct: expressed in transfected cells
Sequence (P40337 whole entry, the tested form may be a part): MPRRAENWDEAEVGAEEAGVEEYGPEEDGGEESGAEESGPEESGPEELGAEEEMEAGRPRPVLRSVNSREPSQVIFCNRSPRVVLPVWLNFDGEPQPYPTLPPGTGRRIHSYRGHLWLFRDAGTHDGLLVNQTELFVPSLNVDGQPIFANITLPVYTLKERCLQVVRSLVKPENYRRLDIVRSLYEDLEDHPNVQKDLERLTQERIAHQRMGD
Sequence (Q15370 whole entry partner, the tested form may be a part): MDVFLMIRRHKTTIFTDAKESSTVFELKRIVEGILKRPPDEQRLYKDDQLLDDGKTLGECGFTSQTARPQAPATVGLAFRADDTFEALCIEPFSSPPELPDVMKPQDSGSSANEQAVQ
Sequence (Q15369 whole entry partner, the tested form may be a part): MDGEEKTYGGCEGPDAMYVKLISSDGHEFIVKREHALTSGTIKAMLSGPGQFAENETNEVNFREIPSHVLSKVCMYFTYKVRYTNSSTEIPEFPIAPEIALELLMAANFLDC
Test: VHL HEK-293 BRET Assay (VHL NanoBRET Target Engagement Assay)
Assay type: cell-based
Conditions: ratio of nanoBRET in cells to nanoBRET +Digitonin
measurement.name: Ratio cell permeability shift
Lab note: jot down the number only; don't add units.

CC(C)(C)[C@@H](C(=O)N1C[C@H](O)C[C@H]1C(=O)NCC(F)(F)F)n1cc(C2CC2)nn1 :: 1.24
CNC(=O)[C@@H]1C[C@@H](O)CN1C(=O)[C@H](C(C)C)n1cc(-c2ccncc2)nn1 :: 1.33
CNC(=O)[C@@H]1C[C@@H](O)CN1C(=O)[C@H](C(C)C)n1cc(-c2cccnc2)nn1 :: 1.21
CNC(=O)[C@@H]1C[C@@H](O)CN1C(=O)[C@H](C(C)C)n1nnc2ccccc21 (single isomer, unassigned) :: 0.76
CNC(=O)[C@@H]1C[C@@H](O)CN1C(=O)[C@H](C(C)C)n1cc(-c2cncs2)nn1 (single isomer, unassigned) :: 0.80
CNC(=O)[C@@H]1C[C@@H](O)CN1C(=O)[C@H](C(C)C)n1cc(-c2ccc[nH]2)nn1 (mixture of isomers) :: 1.26
CNC(=O)[C@@H]1C[C@@H](O)CN1C(=O)[C@H](C(C)C)n1cc(-c2nccs2)nn1 (mixture of isomers) :: 0.92
CNC(=O)[C@@H]1C[C@@H](O)CN1C(=O)[C@H](C(C)C)n1cc(C2CC2)nn1 (single isomer, unassigned) [Isomer A from Example S11] :: 0.97
CNC(=O)[C@@H]1C[C@@H](O)CN1C(=O)[C@H](C(C)C)n1cc(-c2cnco2)nn1 :: 1.51
CC(C)(C)[C@@H](C(=O)N1C[C@H](O)C[C@H]1C(=O)NC1CC1)n1cc(C2CC2)nn1 :: 1.54

I'd like to know its Ratio cell permeability shift. The molecule in question is CNC(=O)[C@@H]1C[C@@H](O)CN1C(=O)[C@H](C(C)C)n1nnc2cc(F)c(F)cc21 (single isomer, unassigned) 0.51

I'd like to know its Ratio cell permeability shift. The molecule in question is "CNC(=O)[C@@H]1C[C@@H](O)CN1C(=O)[C@H](C(C)C)n1cc(-c2ccccn2)nn1" 0.85

I'd like to know its Ratio cell permeability shift. The molecule in question is "CNC(=O)[C@@H]1C[C@@H](O)CN1C(=O)[C@H](C(C)C)n1cc(-c2ncccn2)nn1" 3.40

I'd like to know its Ratio cell permeability shift. The molecule in question is CNC(=O)[C@@H]1C[C@@H](O)CN1C(=O)[C@H](C1CCOCC1)n1cc(C2CC2)nn1 (single isomer, unassigned) 3.00

I'd like to know its Ratio cell permeability shift. The molecule in question is "CNC(=O)[C@@H]1C[C@@H](O)CN1C(=O)[C@H](C(C)C)n1cc(C2(C)CC2)nn1" 1.71

I'd like to know its Ratio cell permeability shift. The molecule in question is "CNC(=O)[C@@H]1C[C@@H](O)CN1C(=O)C(=C(C)C)n1cc(C2CC2)nn1" 0.96

I'd like to know its Ratio cell permeability shift. The molecule in question is "CNC(=O)[C@@H]1C[C@@H](O)CN1C(=O)[C@H](C1CCN(S(C)(=O)=O)CC1)n1cc(C2CC2)nn1" 4.83

I'd like to know its Ratio cell permeability shift. The molecule in question is "CNC(=O)[C@@H]1C[C@@H](O)CN1C(=O)[C@H](C(C)C)n1cc(-c2cncnc2)nn1" 2.35

I'd like to know its Ratio cell permeability shift. The molecule in question is CNC(=O)[C@@H]1C[C@@H](O)CN1C(=O)[C@H](C(C)C)n1cc(-c2ncco2)nn1 (single isomer, unassigned) 0.95

I'd like to know its Ratio cell permeability shift. The molecule in question is CNC(=O)[C@@H]1C[C@@H](O)CN1C(=O)[C@H](C(C)C)n1nnc2c(OC)cccc21 (single isomer, unassigned) 0.68

I'd like to know its Ratio cell permeability shift. The molecule in question is "CNC(=O)[C@@H]1C[C@@H](OC(C)=O)CN1C(=O)[C@@H](n1cc(C2CC2)nn1)C(C)(C)C" 0.68

I'd like to know its Ratio cell permeability shift. The molecule in question is "CC(C)(C)[C@@H](C(=O)N1C[C@H](O)C[C@H]1C(N)=O)n1cc(C2CC2)nn1" 1.71
